target_or_test_system: 5-HT2CR (Homo sapiens)
assay_summary: cell-based

compound	EC50
COc1cc(C(F)(F)F)c(OC)cc1[C@@H]1CCCNC1	> 30 µM

----------
target_or_test_system: 5-HT2CR (Homo sapiens, UniProt P28335)
Sequence (P28335 33-458): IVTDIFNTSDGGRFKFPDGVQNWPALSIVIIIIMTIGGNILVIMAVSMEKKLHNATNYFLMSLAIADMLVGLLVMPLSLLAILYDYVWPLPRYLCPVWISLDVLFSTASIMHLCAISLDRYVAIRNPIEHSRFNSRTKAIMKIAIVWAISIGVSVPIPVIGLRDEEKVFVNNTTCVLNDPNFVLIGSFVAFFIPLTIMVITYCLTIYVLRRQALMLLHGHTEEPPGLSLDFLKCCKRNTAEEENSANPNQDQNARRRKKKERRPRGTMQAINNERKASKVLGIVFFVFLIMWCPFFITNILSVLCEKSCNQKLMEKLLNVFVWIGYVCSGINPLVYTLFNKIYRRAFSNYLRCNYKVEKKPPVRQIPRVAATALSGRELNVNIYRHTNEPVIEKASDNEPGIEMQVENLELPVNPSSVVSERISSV
assay_summary: cell-based
quantity: IC50 (nM)

molecule	value_reported
COc1cc(C(F)(F)F)c(OC)cc1[C@@H]1CCCNC1 [LPH-5]	38

----------
target_or_test_system: 5-HT1BR (Homo sapiens)
Sequence (P28222 whole entry): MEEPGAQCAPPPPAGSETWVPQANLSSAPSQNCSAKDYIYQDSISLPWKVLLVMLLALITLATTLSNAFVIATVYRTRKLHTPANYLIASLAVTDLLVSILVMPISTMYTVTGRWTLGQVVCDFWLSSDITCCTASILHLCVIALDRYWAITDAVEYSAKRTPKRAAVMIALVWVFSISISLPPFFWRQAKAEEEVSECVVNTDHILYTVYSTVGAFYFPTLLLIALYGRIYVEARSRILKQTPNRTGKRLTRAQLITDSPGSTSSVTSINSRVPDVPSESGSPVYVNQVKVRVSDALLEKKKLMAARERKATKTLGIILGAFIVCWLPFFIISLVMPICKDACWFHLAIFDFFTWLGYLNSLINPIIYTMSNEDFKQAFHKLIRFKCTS
assay_summary: cell-based
pEC50: −log10 of the molar value.

compound	pEC50
COc1cc(C(F)(F)F)c(OC)cc1[C@@H]1CCCNC1	< 4.52

----------
target_or_test_system: 5-HT1BR (Homo sapiens)
assay_summary: cell-based
pEC50: −log10 of the molar value.

compound	pEC50
COc1cc(C(F)(F)F)c(OC)cc1[C@@H]1CCCNC1 [LPH-5]	6.06

Measured values drawn from paper doi:10.1101/2024.04.19.590212v1 for this set.
